# key: entry, value: IL-1α IC50
Target: T1, human IL-1α (human, UniProt P01583 113-271)
T1 sequence (looked up): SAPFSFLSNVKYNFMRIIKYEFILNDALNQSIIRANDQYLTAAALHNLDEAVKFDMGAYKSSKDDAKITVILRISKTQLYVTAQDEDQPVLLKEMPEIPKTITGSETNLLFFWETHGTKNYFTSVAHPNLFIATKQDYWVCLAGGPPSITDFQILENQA
Test: cell-based or functional assay
Could you give me the number in nM? Just the number is fine.

ABT2-108-538x/ABT1-221 huIgG1/K wt (second row of that name; light chain column ABT1-222) (bispecific antibody, V domains shown) VH: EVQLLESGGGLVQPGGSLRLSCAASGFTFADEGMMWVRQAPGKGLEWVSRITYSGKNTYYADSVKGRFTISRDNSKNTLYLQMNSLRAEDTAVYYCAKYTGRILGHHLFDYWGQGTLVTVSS VL: DIQMTQSPSSLSASVGDRVTITCRASQPITRNLRWYQQKPGKAPKLLIYHSSVLQSGVPSRFSGSGSGTDFTLTISSLQPEDFATYYCQQGYRWPVTFGQGTKVEIKR: 200

Request: # input binder: ABT2-108/ABT1-122-556 hu IgG1/K wt (bispecific antibody, V domains shown) VH: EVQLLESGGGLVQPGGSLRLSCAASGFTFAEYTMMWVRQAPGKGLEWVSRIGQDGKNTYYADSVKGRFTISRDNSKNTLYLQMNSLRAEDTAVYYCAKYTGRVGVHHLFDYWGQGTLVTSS VL: DIQMTQSPSSLSASVGDRVTITCRASQPIWTELNWYQQKPGKAPKLLIYGSSSLQSGVPSRFSGSGSGTDFTLTISSLQPEDFATYHCQQFAYFPATFGQGTKVEIKR ; wanted: its IL-1α IC50
Result: 150
